Source of measurements: PubChem BioAssay AID463173

Can you tell me survival for the items I'm about to list?
Tested on: DeltatarO mutant
Assay: S. aureus survival, RN4220 and DeltatarO strains – OD600, teichoic acid synthesis inhibitors, primary screen (AID 463173)
Settings: S. aureus RN4220 wild type/DeltatarO growth, OD600, 18 h, stronger effect = lower value, screened at 18.75 µg/mL (by protocol)
The whole screen tested about 52,000 compounds, of which about 4,300 (8.3%) were called active. Many of the other results were omitted from the sample, so actives are more common in it than they were.
Answers are plain numbers, in %.

Observe how each entry below is paired with its result.
[
  {
    "COMPOUND": "COc1cc2[nH]c(=O)n(Cc3ccc(C(=O)N4CCN(c5cc(Cl)ccc5C)CC4)cc3)c(=O)c2cc1OC",
    "METRIC_NAME": "survival",
    "RESULT_VALUE": 58
  },
  {
    "COMPOUND": "Cc1ccccc1OCC(=O)Nc1ccc2nc(SCc3ccccc3)sc2c1",
    "METRIC_NAME": "survival",
    "RESULT_VALUE": 88
  },
  {
    "COMPOUND": "CCN(CC)S(=O)(=O)c1ccc2c(c1)N(CC(=O)Nc1cccc(C(C)=O)c1)C(=O)CO2",
    "METRIC_NAME": "survival",
    "RESULT_VALUE": 84
  },
  {
    "COMPOUND": "CCNC(=O)CC1C(=O)N(c2ccc(C)cc2)C(=O)N1CCC(C)C (configuration not stated)",
    "METRIC_NAME": "survival",
    "RESULT_VALUE": 91
  },
  {
    "COMPOUND": "Nc1cccc(C(=O)NC23CC4CC(CC(C4)C2)C3)c1",
    "METRIC_NAME": "survival",
    "RESULT_VALUE": 95
  },
  {
    "COMPOUND": "CC(=O)N1CCN(c2ccccc2N)CC1",
    "METRIC_NAME": "survival",
    "RESULT_VALUE": 93
  }
]

Field: next compound
Measured survival of "Cc1ccccc1Nc1c(-c2c(F)cccc2Cl)nc2ccc(Br)cn12" : 69

###

Tested on: DeltatarO mutant
Test: S. aureus survival, RN4220 and DeltatarO strains – OD600, teichoic acid synthesis inhibitors, primary screen (AID 463173)
Settings: S. aureus RN4220 wild type/DeltatarO growth, OD600, 18 h, stronger effect = lower value, screened at 18.75 µg/mL (by protocol)
The whole screen tested about 52,000 compounds, of which about 4,300 (8.3%) were called active. Many of the other results were omitted from the sample, so actives are more common in it than they were.
Can you tell me survival for the items I'm about to list?
One number for each entry, in %.

Observe how each entry below is paired with its result.
[
  {
    "COMPOUND": "COc1ccc(-c2nc(C)c(CCNC(=O)c3cccs3)s2)cc1",
    "survival, %": 61
  },
  {
    "COMPOUND": "CCOC(=O)c1cc(S(=O)(=O)N2CCN(c3ccccc3OC)CC2)[nH]n1",
    "survival, %": 122
  },
  {
    "COMPOUND": "CCOC(=O)c1cnc2ccc(OCC)cc2c1N1CCN(c2ccccc2F)CC1",
    "survival, %": 0
  }
]

Field: survival. Fill in for each record below.
1. CCOC(=O)c1cnc(N2CCN(c3cccc(C)c3C)CC2)c2ccccc12
2. CCc1ccc(NC(=O)CCn2nc(C)c(S(=O)(=O)N3CCCCC3)c2C)cc1
3. Cc1cccc(-n2nnc(-c3nc(-c4cccs4)no3)c2N)c1C

1: 77; 2: 128; 3: 60

Field: survival. Fill in for each record below.
1. Cc1cccc(N(C)C(=O)C(Cc2ccccc2)NS(=O)(=O)c2cccc3nsnc23)c1 (stereo not given)
2. CCOC(=O)c1cc(-c2ccc(F)cc2)n(CCC(=O)Nc2nc3cc(C)c(C)cc3s2)c1C
3. Cc1ccc(CN2C(=O)c3ccccc3Sc3ccc(C(=O)NCCCN4CCOCC4)cc32)cc1

74
85
126

Field: survival. Fill in for each record below.
1. Oc1ccc(Br)cc1C1CC(c2ccccc2)=NC(c2ccco2)N1 (stereo not given)
2. O=c1c2ccccc2n(Cc2c(F)cccc2Cl)c(=O)n1CCc1ccccc1
3. O=C(NC1CCCC1)c1ccc2c(c1)N(Cc1ccccc1)C(=O)c1ccccc1S2
4. Cc1ccc(C)c(S(=O)(=O)c2nnn3c2nc(N2CCCCC2)c2sccc23)c1

1: 1; 2: 85; 3: 105; 4: 60

Field: survival. Fill in for each record below.
1. Cc1ccc(CN2C(=O)c3ccccc3Sc3ccc(C(=O)NCc4ccco4)cc32)cc1
2. COc1ccc(NC(=O)c2oc3ccccc3c2NC(=O)c2cccc(F)c2)c(OC)c1
3. CCOC(=O)c1cc(S(=O)(=O)N2CCN(c3cccc(C)c3C)CC2)[nH]n1

1: 81; 2: 95; 3: 81

Field: survival. Fill in for each record below.
1. CCOC(=O)c1cnc2c(OC)cccc2c1N1CCN(c2ccccc2F)CC1
2. O=C1N(c2ccccc2)C(=O)N(c2ccccc2)C2c3ccccc3C=CN12 (stereo not given)
3. CCOC(=O)c1cnc(N2CCN(c3ccc(C)cc3C)CC2)c2ccccc12
4. COc1ccccc1-n1c(=O)c2c3c(sc2n(Cc2ccccc2F)c1=O)CN(C(C)=O)CC3

[1, 100, 87, 120]

###

Can you tell me survival for the items I'm about to list?
Test system: DeltatarO mutant
Test: S. aureus survival, RN4220 and DeltatarO strains – OD600, teichoic acid synthesis inhibitors, primary screen (AID 463173)
Conditions: S. aureus RN4220 wild type/DeltatarO growth, OD600, 18 h, stronger effect = lower value, screened at 18.75 µg/mL (by protocol)
In all, about 52,000 compounds went through this assay and about 4,300 (8.3%) were called active. What follows is part of a selection rich in actives, with near analogues and random picks from the rest.

Field: survival. Fill in for each record below.
1. Cc1ccc(N2C(=O)c3n[nH]c(C)c3C2c2ccc(Cl)cc2)cc1 (configuration not stated)
2. O=C(Nc1ccccc1)c1ccc(Cl)c(S(=O)(=O)Nc2ccccc2)c1
3. CCN(c1ccccc1)S(=O)(=O)c1ccc(F)c(C(=O)Nc2ccc(C)cc2)c1
4. Cc1ccc(C(=O)Nc2ccc(C(=O)O)cc2)cc1S(=O)(=O)Nc1ccccc1
5. O=C1c2[nH]nc(-c3ccc(F)cc3)c2C(c2ccccc2F)N1c1ccccc1 (configuration not stated)
6. Cc1cccc(N(C)S(=O)(=O)c2cc(-c3cnc(C4CC4)o3)ccc2C)c1
7. Cc1ccc2sc(N(CCCN(C)C)C(=O)c3ccco3)nc2c1C

["6% (active)", "43% (active)", "100% (inactive)", "74% (inactive)", "10% (active)", "100% (inactive)", "128% (inactive)"]

###

Test system: DeltatarO mutant
Assay: S. aureus survival, RN4220 and DeltatarO strains – OD600, teichoic acid synthesis inhibitors, primary screen (AID 463173)
Details: S. aureus RN4220 wild type/DeltatarO growth, OD600, 18 h, screened at 18.75 µg/mL (by protocol)
In all, about 52,000 compounds went through this assay and about 4,300 (8.3%) were called active. No stated cut-off is given here; in the data, active means survival mostly below about 52% (no sharp cut-off); inactive means mostly above about 56%. The sample holds actives, similar compounds and a random draw of the others, so the mix is not that of the screen.
Give one outcome, nothing more. List: y = active, n = inactive

[
  {
    "COMPOUND": "COc1ccc2c(c1)c1c(c(=O)n(Cc3ccccc3)c(=O)n1CC(=O)NCc1ccccc1)n2C",
    "DISCRETE_LABEL": "n"
  },
  {
    "COMPOUND": "CC1CCCN(c2csc3ccccc3c2=O)C1 (stereo unspecified)",
    "DISCRETE_LABEL": "n"
  },
  {
    "COMPOUND": "CCOc1ccc(C(=O)c2cn(CC(=O)Nc3ccc(OC)cc3)c3cc4c(cc3c2=O)OCO4)cc1",
    "DISCRETE_LABEL": "n"
  },
  {
    "COMPOUND": "CC(C)c1ccc2c(c1)NC(c1ccncc1)=NC(c1cccs1)=N2",
    "DISCRETE_LABEL": "n"
  },
  {
    "COMPOUND": "O=C(Nc1ccccc1Cl)c1sc2cccc(Cl)c2c1Cl",
    "DISCRETE_LABEL": "n"
  }
]

Called result for "O=C(CNCc1ccccc1F)Nc1ccc(N2CCCC2)cc1" n

Called result for O=C1CC2CCC(CN1)N2S(=O)(=O)c1ccc(C(=O)O)cc1 (stereo unspecified) n

Called result for CCc1ccc(C2c3c(oc4ccc(F)cc4c3=O)C(=O)N2CCc2ccc(OC)cc2)cc1 (stereo unspecified) n

Called result for "Cc1ccc(S(=O)(=O)Nc2nc3c(s2)C(=O)CC(C)(C)C3)cc1" n

Called result for "CCOC(=O)c1c(NC(=O)COc2ccccc2F)sc2c1CCCC2" n

Called result for "CCOc1ccc(NC(=O)CSc2ncc3c(n2)-c2ccc(Cl)cc2N(Cc2ccccc2)S3(=O)=O)cc1" n

Called result for "CCCC(=O)Nc1ccc(NC(=O)c2sc3ccccc3c2Cl)cc1" n

Called result for "CCC(=O)Nc1ccc(C(=O)Nc2c[nH]c(=O)[nH]c2=O)cc1" n
